Reported TGI values for a set of compounds
system: IGROV1 ovarian; test: NCI tumour cell line growth inhibition, 48 h

Answered examples (5):
INSERT INTO measurements (compound, subject_of_test, value_observed) VALUES
  ('O=c1[nH]c2cc(Cl)ccc2nc1/C(=N\O)C(O)c1ccc([N+](=O)[O-])cc1 (centres undefined)', 'IGROV1 ovarian', '> 100 µM'),
  ('O=C1C=CC(=O)c2cc(Sc3ccccc3)c(=O)ccc21', 'IGROV1 ovarian', '35 µM'),
  ('CC1(C)C2CC(=O)C1(C)C(OCc1ccccc1)C2 (centres undefined)', 'IGROV1 ovarian', '> 100 µM'),
  ('COC1=CC(=O)C2C(C1=O)C(c1ccccc1)[C@H]2C (some centres undefined)', 'IGROV1 ovarian', '> 100 µM'),
  ('CN1C(=O)C(=O)c2cc3c(c4c2c1cc1ccccc14)OCO3', 'IGROV1 ovarian', '> 100 µM');

Exam item: # get_value(readout='TGI', item= "O=c1c(Cl)c(Cl)c(=O)c2sc3cc(Cl)ccc3[nH]c1=2" )
Marked response: > 100 µM

Exam item: # get_value(readout='TGI', item= "CN(c1ccccc1Cl)S(=O)(=O)c1ccc([N+](=O)[O-])cc1" )
Marked response: > 100 µM

Exam item: # get_value(readout='TGI', item= "O=C(/C=C/c1ccccc1)n1c(-c2ccc(Cl)cc2)nc2ccccc21" )
Marked response: 4.63 µM

====

system: MALME-3M melanoma; assay: NCI tumour cell line growth inhibition, 48 h
Readout: TGI

Answered examples (4):
INSERT INTO assay_data (molecule, value_observed) VALUES
  ('O=C(/C=C/c1ccccc1)n1c(-c2ccc(Cl)cc2)nc2ccccc21', '5.74 µM'),
  ('Cc1csc(/N=C\c2c(O)c3ccccc3oc2=O)n1', '70.3 µM'),
  ('CN(C)C=C1C(Cl)=C(C=O)CC(C=O)=C1Cl', '24.4 µM'),
  ('COc1cccc(NC(=O)c2sc3nc4c(cc3c2N)C(=O)CCC4)c1', '> 100 µM');

Exam item: # get_value(readout='TGI', item= CCOP(=O)(OCC)C(C#N)Cc1ccco1 (stereo not given) )
Marked response: > 10 µM

Exam item: # get_value(readout='TGI', item= "Cc1cc(C)c(NC(=S)NC(=O)c2ccccc2)cc1C" )
Marked response: > 100 µM

Exam item: # get_value(readout='TGI', item= "CCOC(=O)/C(C#N)=C/c1ccnc2ccccc12" )
Marked response: > 100 µM

Exam item: # get_value(readout='TGI', item= "O=C(N/N=C(/COc1ccc([N+](=O)[O-])cc1)N=Cc1ccncc1)c1ccncc1" )
Marked response: > 100 µM

Exam item: # get_value(readout='TGI', item= "CCn1c(-c2cc3ccccc3cc2O)nn(C(=O)c2c(Cl)cccc2Cl)c1=S" )
Marked response: > 50 µM

Exam item: # get_value(readout='TGI', item= "COC(=O)Cc1ccc(Oc2cnc3cc(F)c(F)cc3n2)cc1" )
Marked response: > 100 µM

Exam item: # get_value(readout='TGI', item= COC(C)(C)C1(O)CCC(C)CC1=O (stereo not given) )
Marked response: > 100 µM

Exam item: # get_value(readout='TGI', item= "C=C[C@@]1(O)CCCC2=C(C(=O)OCC)CC[C@]21C" )
Marked response: > 100 µM

Exam item: # get_value(readout='TGI', item= FC1C2=C(SC1(F)F)C1CCC2C1 (stereo not given) )
Marked response: > 100 µM

Exam item: # get_value(readout='TGI', item= CCCCCCCCCCCCCCCCCC(=O)OCC(COC(=O)CCCN)OC(=O)CCCN (stereo not given) )
Marked response: 38.2 µM

Exam item: # get_value(readout='TGI', item= CC1(C)C2CC(=O)C1(C)C(OCc1ccccc1)C2 (stereo not given) )
Marked response: > 100 µM
